METHOD: Example 3 healthy subjects QD vs BID: KAR5417 plasma levels
Assay type: in vivo, human
EXPERIMENTAL PARAMETERS: human, plasma, RVT-1201 800 mg QD oral, day 14, read-out: KAR5417 mean AUC0-24
VALUE TYPE: AUC(0-t) (ng·h/mL)
Express the result in ng·h/mL but write the number alone.

Fill in: AUC(0-t) of `Nc1nc(O[C@H](c2ccc(Cl)cc2-c2ccccc2)C(F)(F)F)cc(N2CCC3(CC2)CN[C@H](C(=O)O)C3)n1` is ___
9180
